Test system: IIIB strain of HIV-1 (WT)
protocol.description: Anti-HIV-1 activity, protection of infected MT-2 cells
Type: cell-based
cond: Human immunodeficiency virus 1, IIIB, MT2, read-out: WT EC50
pEC50: −log10 of the molar value.
readout.name: pEC50

                                   compound  endpoint_value
0  O=C1Nc2ccc(Cl)cc2[C@@](C#CC2CC2)(C(F)(F)F)O1 [evafirenz, reference compound]            8.70

----------
Test system: HIV-1 K103N/Y181C variant strain
protocol.description: Anti-HIV-1 activity in MT-2 cells, K103N/Y181C variant strain
Assay type: cell-based
cond: Human immunodeficiency virus 1, MT2, read-out: K103N/Y181C EC50
readout.name: EC50

>>> df
                                   molecule                      study_system  endpoint_value
0  Fc1cccc(F)c1Cc1cnc(Nc2ccc(-c3cccnc3)c(Cl)c2)o1  HIV-1 K103N/Y181C variant strain       > 2100 nM
1    N#Cc1ccc(Nc2ncc(Cc3c(F)cccc3F)o2)cc1Cl  HIV-1 K103N/Y181C variant strain       > 2100 nM
2  [O-][n+]1ccc(OCc2ccc(Nc3ncc(Cc4c(F)cccc4F)o3)cc2Cl)cc1  HIV-1 K103N/Y181C variant strain       > 2100 nM
3  Cc1ccnc2c1NC(=O)c1cccnc1N2C1CC1 [nevirapine, reference compound]  HIV-1 K103N/Y181C variant strain       > 2100 nM

Attribution: paper PMC2880392
